pIC50: recorded values
STUDY SYSTEM: JAK2 (Homo sapiens)
Construct: 5 μl of catalytic domain recombinant Kinase enzyme+Tyr peptide substrate (Invitrogen, CA)
Sequence (O60674 849-1124 limits assumed): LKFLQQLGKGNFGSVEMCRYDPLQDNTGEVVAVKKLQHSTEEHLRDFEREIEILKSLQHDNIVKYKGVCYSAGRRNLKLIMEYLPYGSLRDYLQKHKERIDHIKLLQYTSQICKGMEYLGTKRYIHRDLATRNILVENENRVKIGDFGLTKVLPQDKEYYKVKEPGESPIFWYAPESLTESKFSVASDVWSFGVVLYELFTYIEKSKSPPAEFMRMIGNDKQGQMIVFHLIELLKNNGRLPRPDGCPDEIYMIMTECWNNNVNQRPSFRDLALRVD
EXPERIMENTAL DETAILS: Z'-LYTE kinase assay JAK2
pIC50: −log10 of the molar value.

Short answer for NC(=O)c1cnc(Nc2ccc3cnccc3c2)cc1NCc1ccccc1 : pIC50 was < 6.00

The compound Cc1cc(Nc2cc(NCc3ccccc3)c(C(N)=O)cn2)ccc1C(=O)N(C)CCO showed pIC50 equal to 7.00 to 8.00

The measured pIC50 associated with CCC(=O)N1CCC(c2ccc(Nc3cc(NCc4nccs4)c(C(N)=O)cn3)cc2)CC1 reads 6.00 to 7.00

Short answer for COC(=O)N(C)c1ccc(Nc2cc(NCc3cccc4[nH]ccc34)c(C(N)=O)cn2)cc1 : pIC50 was 7.00 to 8.00

* * *

// reported IC50 per item
STUDY SYSTEM: JAK1 (Homo sapiens)
Construct: 5 μl of catalytic domain recombinant Kinase enzyme+Tyr peptide substrate (Invitrogen, CA); purchased Invitrogen
Sequence (P23458 875-1153 limits assumed): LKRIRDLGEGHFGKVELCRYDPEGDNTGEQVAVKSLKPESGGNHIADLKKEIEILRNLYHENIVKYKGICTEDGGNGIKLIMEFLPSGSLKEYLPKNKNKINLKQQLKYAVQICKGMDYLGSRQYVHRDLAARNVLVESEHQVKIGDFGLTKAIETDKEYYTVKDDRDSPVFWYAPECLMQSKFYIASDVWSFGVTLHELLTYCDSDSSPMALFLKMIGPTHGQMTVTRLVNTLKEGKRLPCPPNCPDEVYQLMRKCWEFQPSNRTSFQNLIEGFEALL
EXPERIMENTAL DETAILS: Z'-LYTE kinase assay JAK1
Assay type: biochemical

Known results for compounds:
> print(dat)
                                   compound  reported.property     test.result
1  NC(=O)c1cnc(Nc2ccc(N3CCN(c4ccccn4)CC3)cc2)cc1NCc1cccc2[nH]ccc12 [Example 402]               IC50    10 to 100 nM
2  CC(=O)Nc1ccc(Nc2cc(NCc3cccc4cc[nH]c34)c(C(N)=O)cn2)cc1 [Example 473]               IC50  100 to 1000 nM
3  NC(=O)c1cnc(Nc2cccc(N3CCCCC3)c2)cc1NCc1cccc(F)c1 [Example 68]               IC50       > 1000 nM

Input NC(=O)c1cnc(Nc2ccc(C(=O)N3CCOCC3)cc2)cc1NCc1ccccc1 [Example 40] . Output IC50: 100 to 1000 nM

Per the records, this compound ( CN(C)C(=O)C1CN(c2ccc(Nc3cc(NCc4ccccc4)c(C(N)=O)cn3)cc2)C1 [Example 331] ) has IC50 equal to 100 to 1000 nM

Lookup result for CC(=O)N1CCC(CNc2cc(Nc3ccc(C(=O)N4CCC4)cc3)ncc2C(N)=O)CC1 [Example 50] ; measured IC50: > 1000 nM

Query Cn1ccnc1CNc1cc(Nc2ccc(C3CCOCC3)cc2)ncc1C(N)=O [Example 183] yields IC50 of 100 to 1000 nM

The measured IC50 associated with CCC(=O)N1CCC(c2ccc(Nc3cc(NCc4cccc(F)c4F)c(C(N)=O)cn3)cc2)CC1 [Example 196] reads 100 to 1000 nM

* * *

STUDY SYSTEM: JAK3 (Homo sapiens)
Construct: 5 μl of catalytic domain recombinant Kinase enzyme+Tyr peptide substrate (Invitrogen, CA); purchased Invitrogen
Sequence (P52333 822-1111 limits assumed): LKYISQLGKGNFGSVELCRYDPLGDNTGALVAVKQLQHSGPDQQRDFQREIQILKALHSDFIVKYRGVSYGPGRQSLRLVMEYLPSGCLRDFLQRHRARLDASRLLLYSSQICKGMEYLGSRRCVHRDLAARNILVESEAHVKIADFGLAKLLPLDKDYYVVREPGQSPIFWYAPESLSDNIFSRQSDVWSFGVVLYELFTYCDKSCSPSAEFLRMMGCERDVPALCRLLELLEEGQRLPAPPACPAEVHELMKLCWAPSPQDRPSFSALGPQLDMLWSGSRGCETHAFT
EXPERIMENTAL DETAILS: Z'-LYTE kinase assay JAK3
Assay type: biochemical
REPORTED PROPERTY: IC50

Example compounds with recorded IC50:
> print(dat)
                               smiles.input         study.system  reported.property     test.result
1  NC(=O)c1cnc(Nc2ccc(CC(=O)N3CCCC3)cc2)cc1NCc1ccccc1  JAK3 (Homo sapiens)               IC50      1 to 10 nM
2  Cc1cc(Nc2cc(NCc3ccccc3)c(C(N)=O)cn2)ccc1C(=O)N(C)CCO  JAK3 (Homo sapiens)               IC50      1 to 10 nM
3  CC(=O)N1CCC[C@H](CNc2cc(Nc3ccc(C(=O)N(C)C)c(N(C)C)c3)ncc2C(N)=O)C1  JAK3 (Homo sapiens)               IC50  100 to 1000 nM
4  CC(=O)N1CCN(c2cccc(N(C(C)=O)c3cc(NC4(c5ccccc5)CC4)c(C(N)=O)cn3)c2)CC1  JAK3 (Homo sapiens)               IC50       > 1000 nM
5  NC(=O)c1cnc(Nc2ccc(C3CCOCC3)cc2)cc1NCc1ccccn1  JAK3 (Homo sapiens)               IC50    10 to 100 nM
6  CN1CCC(C(=O)Nc2cc(Nc3cc(NC4(c5ccccc5)CC4)c(C(N)=O)cn3)ccc2Cl)CC1  JAK3 (Homo sapiens)               IC50    10 to 100 nM
7  CN(C)C(=O)COc1cccc(Nc2cc(NC3(c4ccccc4)CC3)c(C(N)=O)cn2)c1  JAK3 (Homo sapiens)               IC50    10 to 100 nM
8  Cc1ccc(Nc2cc(NCc3ccccc3)c(C(N)=O)cn2)cc1  JAK3 (Homo sapiens)               IC50  100 to 1000 nM

Reported JAK3 (Homo sapiens) IC50 for item CC(=O)N1CCN(c2ccc(Nc3cc(NCC(C)C)c(C(N)=O)cn3)cc2)CC1 was 10 to 100 nM

// IC50 (JAK3 (Homo sapiens)) for COc1ccc(Nc2cc(NCc3cccc(F)c3)c(C(N)=O)cn2)cc1 = 10 to 100 nM

Record CN(C)C(=O)C1CCN(c2ccc(Nc3cc(NCc4cccc5ccsc45)c(C(N)=O)cn3)cc2Cl)CC1 / JAK3 (Homo sapiens), IC50 recorded as 1 to 10 nM

Lab entry: JAK3 (Homo sapiens) assay, compound CCC(=O)N1CCC(c2ccc(Nc3cc(NCc4ccccc4F)c(C(N)=O)cn3)cc2)CC1 , IC50 = 10 to 100 nM

Assay JAK3 (Homo sapiens), sample NC(=O)c1cnc(Nc2ccc(C3CCNCC3)cc2)cc1NCc1cccc(F)c1F , IC50 read: 1 to 10 nM

Short answer on JAK3 (Homo sapiens) for CN(C)C(=O)c1ccc(Nc2cc(NCc3cc(F)ccc3F)c(C(N)=O)cn2)cc1 , IC50: 1 to 10 nM

IC50 on JAK3 (Homo sapiens) for NC(=O)c1cnc(Nc2cccc(C3CCOCC3)c2)cc1NCc1cncc(F)c1 is 1 to 10 nM

JAK3 (Homo sapiens) data for CS(=O)(=O)N1CCC(c2cccc(Nc3cc(NCc4ccccc4F)c(C(N)=O)cn3)c2)CC1 ; its IC50: 10 to 100 nM

Response field IC50 (JAK3 (Homo sapiens)) for item Cc1cc(Nc2cc(NCc3cncc(F)c3)c(C(N)=O)cn2)ccc1C(=O)N(C)C : 1 to 10 nM

* * *

STUDY SYSTEM: JAK3 (Homo sapiens)
Construct: 5 μl of catalytic domain recombinant Kinase enzyme+Tyr peptide substrate (Invitrogen, CA)
EXPERIMENTAL DETAILS: Z'-LYTE kinase assay JAK3
REPORTED PROPERTY: IC50

> print(dat)
                                   compound   test.result
1  N#CCC(=O)N1CCC(c2ccc(Nc3cc(NCc4ccccc4F)c(C(N)=O)cn3)cc2)CC1 [Example 117]    1 to 10 nM
2  COc1ccc(Nc2cc(NC[C@H]3CCCN(C(C)=O)C3)c(C(N)=O)cn2)cc1 [Example 54]  10 to 100 nM
3  NC(=O)c1cnc(Nc2ccc(-n3cccn3)cc2)cc1NCc1ccccc1 [Example 277]  10 to 100 nM

Form field IC50, entry NC(=O)c1cnc(Nc2ccc(C(=O)N3CCOCC3)cc2)cc1NCc1ccccc1 [Example 40] : 1 to 10 nM

The compound listed as CCS(=O)(=O)N1CCC(c2ccc(Nc3cc(NCc4ccccc4F)c(C(N)=O)cn3)cc2)CC1 [Example 112] has a reported IC50 of 10 to 100 nM

The value of IC50 measured for the compound CN(C)C(=O)c1ccc(Nc2cc(NCc3cccc4ccn(C)c34)c(C(N)=O)cn2)cc1 [Example 318] turned out to be 10 to 100 nM

Field IC50 (entry NC(=O)c1cc(F)c(Nc2cccc(-n3nccn3)c2)nc1N [Example 24] ) reads > 1000 nM

IC50 recorded for this compound, CN(C)C(=O)c1ccc(Nc2cc(NCc3ccccc3)c(C(N)=O)cn2)cc1F [Example 273] , is 10 to 100 nM

* * *

Property: inhibition at 1 µM; scope: individual molecules
Tested on: JAK1/3 signaling to STAT6 in Ramos B cells
EXPERIMENTAL DETAILS: IL4 stimulation of JAK1/3 signaling to STAT6 in Ramos B cells (pSTAT6 Y641, FACS)
Type: cell-based
CONDITION SET: Homo sapiens, 1.0 uM compound, read-out: IL-4/STAT6 in Ramos Percent Inhibition at 1.0 uM
Counter-ions that a name gives are not always drawn.
Give the value, in units of %, as a plain number.

Before answering, review these 5 worked examples.
> print(dat)
                                   molecule  test.result
1  C[N+]1(C)CCC(c2ccc(Nc3cc(NCc4cccc(F)c4)c(C(N)=O)cn3)cc2)CC1 [Example 78, formate]           14
2  CC(=O)N1CCN(c2ccc(Nc3cc(N[C@H]4CCc5ccccc54)c(C(N)=O)cn3)cc2)CC1           18
3  CNC(=O)[C@@H]1CCCN(c2ccc(Nc3cc(NCc4ccccc4)c(C(N)=O)cn3)cc2)C1           65
4  CN(C)C(=O)c1ccc(Nc2cc(NCc3ccccc3)c(C(N)=O)cn2)cc1           50
5  NC(=O)c1cnc(Nc2ccc(N3CCCCC3=O)cc2)cc1NCc1cccc(F)c1           50

Reported inhibition at 1 µM ( NC(=O)c1cnc(Nc2ccc(N3CCOCC3)cc2)cc1NCc1cccc(F)c1 ) = 69

// CC(=O)N1CCN(c2ccc(Nc3cc(NCc4cccc(F)c4F)c(C(N)=O)cn3)cc2)CC1 : inhibition at 1 µM value = 64

According to the records, this molecule COCCOc1cccc(Nc2cc(NCc3ccccc3)c(C(N)=O)cn2)c1 displays inhibition at 1 µM of 27

Quick note, inhibition at 1 µM for NC(=O)c1cnc(Nc2ccc(N3CCCC3=O)c(Cl)c2)cc1NCc1cccc(F)c1 landed at 42

Reported inhibition at 1 µM of NC(=O)c1cnc(Nc2cccc(OCCN3CCCC3)c2)cc1NCc1cccc(F)c1 : 60

Record CC(=O)N1CCN(c2ccc(Nc3cc(N[C@H](C)c4ccccc4)c(C(N)=O)cn3)cc2)CC1 . Reported inhibition at 1 µM: 40

Value of inhibition at 1 µM reported for the molecule NC(=O)c1cnc(Nc2cccc(N3CCOCC3)c2)cc1NCc1ccccc1 is 50
